Numbers sourced from patent US8465973B2.

- PROCEDURE_DETAILS: Water solubility of resveratrol and resveratrol triphosphate
- Format: physicochemical
- ASSAY_SETUP: 25 °C, pH 7, aqueous buffer, thermodynamic from solid
- Procedure: The water solubility of resveratrol is tested at pH 7 in 1 mM potassium phosphate buffer at room temperature. Ten mg of resveratrol (M.W. 228.24) are suspended in 10 ml of buffer. This suspension, corresponding to a concentration of 1 g/l or 4.38 mM, is agitated for 24 hours in a rotary shaker at 25° C. in the dark. The sample is centrifuged at 14,000 rpm for 5 minutes and an OD of 6.26 is determined at 305 nm wavelength at which the ε mM of resveratrol has a value of 28.1. […]
MEASURE_NAME: solubility at 24 h

Exercise: Look up and report measured solubility at 24 h for this entry: `Oc1ccc(/C=C/c2cc(O)cc(O)c2)cc1`
Solution: 5.1 µg/mL
